Tested on: lacZ under control of the tetA promoter (PtetA) in E. coli KM3
Assay type: cell-based
Conditions: Table 6, reverse repressor hits; tribenuron, same plate assay format (20 ppm)
quantity_kind: relative β-galactosidase activity, inducer Tb
Give bare numbers.

# per-item lookup of relative β-galactosidase activity, inducer Tb; items listed below
1. L1-34: library L1 hit with reverse repressor activity (SEQ ID NO: 1206-1213) (protein, rSuR L1-34) MGSRLDKSKVINSALELLNEVGIEGLTTRKLAQKLGVEQPTLYWHVKNKRALLDALAIEMADRHNTHFCPLEGESWQDFLRNAARSMRCALLSHRDGAKVYLGTARTEKQYETTENVLAFLCQQGFSLENALYAVRAVPRFTLGCVLLDQERQVAKEERETPTTDSMPPLLRQARELTDHQGAEPAFLFGLELIICGLEKQLKCESGS
2. L1-39: library L1 hit with reverse repressor activity (SEQ ID NO: 1206-1213) (protein, rSuR L1-39) MGSRLDKSKVINSALELLNEVGIEGLTTRKLAQKLGVEQPTLYWHVKNKRALLDALAIEMMDRHQTHFCPLEGESWQDFLRNTAKSYRCALLSHRDGAKVILGTRWTEKQYETRENVLAFLCQQGFSLENALYAWAAVGPFTLGCVLRDQERQVAKEERETPTTDSMPPLLRQALELMDHQGAEPAFLFGLELIICGLEKQLKCESGS
3. L1-33: library L1 hit with reverse repressor activity (SEQ ID NO: 1206-1213) (protein, rSuR L1-33) MGSRLDKSKVINSALELLNEVGIEGLTTRKLAQKLGVEQPTLYWHVKNKRALLDALAIEMLDRHATHFCPLEGESWQDFLRNNAKSMRCALLSHRDGAKVQLGTAATEKQYETLENKLAFLCQQGFSLENALYAHSAVTQFTLGCVLRDQEGQVAKEERETPTTDSMPPLLRQARELRDHQGAEPAFLFGLELIICGLEKQLKCESGS
4. L1-36: library L1 hit with reverse repressor activity (SEQ ID NO: 1206-1213) (protein, rSuR L1-36) MGSRLDKSKVINSALELLNEVGIEGLTTRKLAQKLGVEQPTLYWHVKNKRALLDALAIEMADRHHTHFCPLEGESWQDFLRNAAKSMRCALLSHRDGAKVRLGTAWTEKQYETHENVLAFLCQQGFSLENALYALKAVSGFTLGCVLKDQEMQVAKEERETPTTDSMPPLLRQATELVDHQGAEPAFLFGLELIICGLEKQLKCESGS
5. L1-18: library L1 hit with reverse repressor activity (SEQ ID NO: 1206-1213) (protein, rSuR L1-18) MGSRLDKSKVINSALELLNEVGIEGLTTRKLAQKLGVEQPTLYWHVKNKRALLDALAIEMLDRHLTHFCPLEGESWQDFLRNNAKSMRCALLSHRDGAKVWLGTGFTEKQYETKENRLAFLCQQGFSLENALYAIRAVSRFTLGCVLQDQEPQVAKEERETPTTDSMPPLLRQAVELFDHQGAEPAFLFGLELIICGLEKQLKCESES
6. L1-25: library L1 hit with reverse repressor activity (SEQ ID NO: 1206-1213) (protein, rSuR L1-25) MGSRLDKSKVINSALELLNEVGIEGLTTRKLAQKLGVEQPTLYWHVKNKRALLDALAIEMLDRHATHFCPLEGESWQDFLRNTAKSMRCALLSHRDGAKVLLGTATTEKQYETLENLLAFLYQQGFSLENALYAWQAVWRFTLGCVLIDQETQVAKEERETPTTDSMPPLLRQAVELKDHQGAEPAFLFGLELIICGLEKQLKCETGS

[2.26, 0.97, 4.71, 0.57, 1.65, 1.72]
